Target: recombinant RORγ Ligand Binding Domain (LBD) protein (Homo sapiens (Human), UniProt P51449)
Sequence (P51449 269-508): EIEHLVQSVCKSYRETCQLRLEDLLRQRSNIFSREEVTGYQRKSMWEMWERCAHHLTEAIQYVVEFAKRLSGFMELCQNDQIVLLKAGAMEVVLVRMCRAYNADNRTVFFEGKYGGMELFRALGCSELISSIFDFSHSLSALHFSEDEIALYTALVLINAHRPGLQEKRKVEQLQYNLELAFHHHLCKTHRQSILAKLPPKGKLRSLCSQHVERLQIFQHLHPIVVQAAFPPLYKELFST
Assay: Radio-Ligand RORγ Binding Assay (Assay 1)
Settings: competition with 25-hydroxy [26,27-3H]-cholesterol, SPA; Table 9; read-out: RORγ Binding Ki Range*
Protocol: Radio-Ligand RORγ Binding Assay (Assay 1) Compounds of the present invention were tested for ability to bind to RORγ in a cell-free competition assay with commercially available radio-ligand (RL), 25-hydroxy [26,27-^3H]— cholesterol (PerkinElmer, Cat. # NET674250UC), for a ligand binding site on a recombinant RORγ Ligand Binding Domain (LBD) protein expressed as a 6×His-Glutathione-S-Transferase (GST) fusion (“6×His” disclosed as SEQ ID NO: 2). […]
attribute_measured: Ki

CCS(=O)(=O)c1ccc(CC(=O)Nc2nc3c(s2)CN(CC2CCn4c(C)nnc4C2)[C@H]3C(C)C)cc1 (some centres unmarked) | 100 to 1000 nM

Entry `CC[C@@H]1c2nc(NC(=O)Cc3ccc(S(C)(=O)=O)cc3)sc2CN1Cc1cccc(C(F)(F)F)c1` : reported Ki = ?
< 100 nM

Entry `CCS(=O)(=O)c1ccc(CC(=O)Nc2nc3c(s2)CN(Cc2ccc(F)cc2F)[C@H]3C(C)C)cc1` : reported Ki = ?
< 100 nM

Data provenance is patent US9868748B2.
